STUDY TARGET: EGFR (human)
ASSAY PROCEDURE: radiometric filter-binding kinase assay, Kinase HotSpot
STUDY CONDITIONS: compound 0.5 µM; ATP 10 µM
Each entry below carries its reported residual activity.
QUANTITY: residual activity (%)

| COMPOUND STRUCTURE STRING | VALUE REPORTED |
| --- | --- |
| CCCCc1c(-c2ccc(OC)cc2)[nH]c2nccnc12 | 103 |
| COc1ccc2c(c1)c(C1=C(c3c[nH]c4ccccc34)C(=O)NC1=O)cn2CCCN(C)C | 92.6 |
| Ic1cccc(CSc2nnc(-c3ccncc3)o2)c1 | 97.1 |
| Cc1nc(-c2ccccc2)c(-c2ccncc2)o1 | 89.4 |
| COc1ccc(S(=O)(=O)N(CCO)c2ccccc2CN(C)C/C=C/c2ccc(Cl)cc2)cc1 | 106 |
| O=C1C(Cl)=C(N2C(=O)CCC2=O)C(=O)c2ccccc21 | 98.4 |
| CN(C)CCCn1cc(C2=C(c3c[nH]c4ccccc34)C(=O)NC2=O)c2ccccc21 | 94 |
| COc1ccc(Cl)cc1NC(=O)Nc1cc(C)nc2ccccc12 | 98 |
| CC(C)(C)c1cc(C=C(C#N)C#N)cc(Br)c1O | 106 |
| COc1cc(Nc2c(C#N)cnc3cc(OCCCN4CCN(C)CC4)c(OC)cc23)c(Cl)cc1Cl | 3.84 |
| O=C1NC(=O)c2c1c1c3ccccc3[nH]c1n1cncc21 | 92.7 |
| N#C/C(=C\c1ccc(O)c(O)c1)C(=O)NCc1ccccc1 | 72.4 |
| c1ccc2c(-c3ccncc3)c[nH]c2c1 | 97.3 |
| O=C1c2ccccc2-c2nc3nnnn3nc21 | 37 |
| COc1cc2ncnc(Nc3ccc(OCc4ccccc4)cc3)c2cc1OC | 21.3 |
| O=C(c1cc2cc(O)ccc2[nH]1)c1cc2cc(O)ccc2[nH]1 | 97.6 |
| CN(C)c1ccc(/C=C2\C(=O)Nc3ccccc32)cc1 | 92.1 |
| CN(C)S(=O)(=O)c1ccc2c(c1)/C(=C/c1cc3c([nH]1)CCCC3)C(=O)N2 | 93.4 |
| O=C1Nc2ccc(Br)cc2/C1=C\c1cc2c([nH]1)CCCC2 | 87.4 |
| Cc1cncc2cccc(S(=O)(=O)N3CCCN(C(=O)CN)C[C@H]3C)c12 | 98.7 |
| COc1ccc(C(=O)Nc2sc3c(c2C(N)=O)CCCC3)cc1OC | 99.9 |
